test system: RARb homodimer (NR concentration 270 nM); experiment: PBM binding z-score (relative to random genomic background probes); higher = stronger binding; sequences stand for … in GC…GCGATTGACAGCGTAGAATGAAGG
# binning rule on PBM binding z-score: bottom (below 2), middle (2 to below 4), top (4 or more)

Record excerpt, results attached:
>>> df
                       sequence_input  label_value
0  CCTGCTAGGTCAATGGTCAGCTCAAGCAGCTCGC       middle
1  ATATGTAGGTTACATCGGGGTCATTCAGGCTATG          top
2  CCTGCTCGGTCAATGGTCAGCTAAAGCAGCTCGC       bottom

Here is another sequence to look at.
Problem: Quick check: band for ATAAGTAGGTTAGGGTCATTCAGAAAGTAGGGAA
Result: middle

###

tested on: PPARg:RXRa IVT, anti-PPARg (NR concentration 270 nM, RXRa partner concentration 90 nM); experiment: PBM binding z-score (relative to random genomic background probes); higher = stronger binding; sequences stand for … in GC…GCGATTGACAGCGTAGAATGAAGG
Mark no for PBM binding z-score values under 0.7, and yes for everything at or above.

                       sequence_input                              assay_system  label_value
0  CTGAGTAGGTTACGAGGGGGCATTCAGTGCGAAT  PPARg:RXRa IVT, anti-PPARg (NR concentration 270 nM, RXRa partner concentration 90 nM)          yes

Problem: Determine whether this sequence has PBM binding z-score no lower than 0.7: CAAACTAGGTCACCAGGACAGTGAAGAGGTTGGA
Result: yes

###

system: LXRa homodimer (NR concentration 270 nM); test: PBM binding z-score (relative to random genomic background probes); higher = stronger binding; sequences stand for … in GC…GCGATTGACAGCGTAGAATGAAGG
quantity: PBM binding z-score
Enter a number only.

// worked examples, PBM binding z-score included
In [3]: df
Out[3]:
                       sequence_input                              assay_system  meas_value
0  CCGAGTGGGTTACGAGGGGGCATTCAGTGCGAAT  LXRa homodimer (NR concentration 270 nM)       0.977
1  ATATGTAGGTTAGGTTCATTCAGAAAGTAGGGAA  LXRa homodimer (NR concentration 270 nM)       0.871
2  CCTACTGGGCCAAAGGTCATAGATTCCAATGCTC  LXRa homodimer (NR concentration 270 nM)        3.46
3  AGTCAAAGTTCATCTAGGTAACGAAAGATATGCT  LXRa homodimer (NR concentration 270 nM)        4.68

Turning now to a further record.
Problem: Determine reported PBM binding z-score for CCCAGTAGGTTACGAGGGGGCATTCAGTGCGAAT ; test system: LXRa homodimer (NR concentration 270 nM).
Result: 1.48

###

system: VDR:RXRa (NR concentration 270 nM, RXRa partner concentration 90 nM); assay: PBM binding z-score (relative to random genomic background probes); higher = stronger binding; sequences stand for … in GC…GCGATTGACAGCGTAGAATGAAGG
So basically: PBM binding z-score at 4 or higher? That is Fulfilled. Lower than 4? That is Not fulfilled.

In [3]: df
Out[3]:
                       sequence_input                              assay_system    label_value
0  CGAACTAGGTCAAAGGACAGCGAAAGGCGACGTA  VDR:RXRa (NR concentration 270 nM, RXRa partner concentration 90 nM)  Not fulfilled
1  CCGACTGGGGCAAAGGTCACCATACTCAGTACGA  VDR:RXRa (NR concentration 270 nM, RXRa partner concentration 90 nM)      Fulfilled
2  ACTTACGGGTCAACGGGGTTATAGCACGCGTATA  VDR:RXRa (NR concentration 270 nM, RXRa partner concentration 90 nM)      Fulfilled
3  CAAACTAGGTCACCGTAAGGTCAAAGTCCGCATG  VDR:RXRa (NR concentration 270 nM, RXRa partner concentration 90 nM)      Fulfilled
4  TCTGCTGGGTCAACGATGGTCAGCTAATCTGCTA  VDR:RXRa (NR concentration 270 nM, RXRa partner concentration 90 nM)  Not fulfilled
5  CCTACTGGGCCAAGGTCATTGAGCAGTCAAAGCA  VDR:RXRa (NR concentration 270 nM, RXRa partner concentration 90 nM)  Not fulfilled
6  ATCGAAATGTCGTGAGGTGAGTATACAGAAAGGC  VDR:RXRa (NR concentration 270 nM, RXRa partner concentration 90 nM)  Not fulfilled
7  TCGAGTAGGTTGCGGGGGCATTCAGGGATGAAGA  VDR:RXRa (NR concentration 270 nM, RXRa partner concentration 90 nM)  Not fulfilled
8  CTTTACGGGTCAAGGTTATAGCACGGGTGGTACG  VDR:RXRa (NR concentration 270 nM, RXRa partner concentration 90 nM)  Not fulfilled
9  CGAACTAGGTCACCAGGACAGTGGAGAGGTTGGA  VDR:RXRa (NR concentration 270 nM, RXRa partner concentration 90 nM)  Not fulfilled

Problem: Answer whether PBM binding z-score of TCGAGTAGGTTACGGGGGCATTCCGGGATGAAGA is greater than or equal to 4.
Result: Not fulfilled

Problem: Determine whether measured PBM binding z-score meets or exceeds 4 for AGATTGAGGTTACCAAAGATCAGGGAAACGCTTG
Result: Not fulfilled

Problem: Identify whether the reported PBM binding z-score of the following sequence is 4 or greater: TCGAGTAGGTTACGGGGTCATTCAGGGATGAAGA
Result: Fulfilled

Problem: Is reported PBM binding z-score greater than or equal to 4 here: CGATCTAGGTCAAAGGACAGTGAAAGGCGACGTA
Result: Not fulfilled
